Data origin, for the record: paper PMC13016609

Assayed System: T1, TFAM (no MTS) (Homo sapiens, UniProt Q00059 43-246)
T1 sequence: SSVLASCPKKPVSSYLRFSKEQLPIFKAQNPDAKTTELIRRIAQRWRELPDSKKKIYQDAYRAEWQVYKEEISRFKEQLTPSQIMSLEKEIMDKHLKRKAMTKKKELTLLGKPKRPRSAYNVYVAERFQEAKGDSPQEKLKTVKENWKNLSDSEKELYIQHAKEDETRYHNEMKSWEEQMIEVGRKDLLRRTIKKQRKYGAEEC
Protocol: fluorescence anisotropy; Hill n 2.63±0.22; FP: 25 mM HEPES, 10 mM Mg(OAc)2, 25 mM NaOAc, 75 mM KOAc, pH 7.5, 1 nM DNA, TFAM 0-15 nM diluted on ice (read temperature not stated); AFM oligos: on ice, 2 min
Test Context: protein: recombinant; label: 5' 6-FAM on strand 1; blunt

Binder	Kd / nM
ND3_92 (dsDNA) DNA 1: TTAGTAGCTATTACCTTCTTATTATTTGATCTA DNA 2: TAGATCAAATAATAAGAAGGTAATAGCTACTAA	4.53
